# pKd per record follows
- assayed.system: HLA-A*02:03
- experiment.notes: IEDB peptide-MHC binding, purified MHC/competitive/radioactivity; filed as Kd, often an IC50 or EC50 that approximates it; bounds were set here for any values at or beyond the usual limits of such assays
- test.context: source organism: Dengue virus 2 Jamaica/1409/1983
Convention used: pKd is expressed as -log10 of the molar concentration.

input_sequence=FLTIPPTAGI recorded_result=8.01
input_sequence=LLILCVTQV recorded_result=8.12
input_sequence=YLALLAAFKV recorded_result=7.82
input_sequence=RLITVNPIV recorded_result=7.20

Attention now shifts to the item below.
sequence WMTTEDMLAV , pKd observed: 7.69

====

- assayed.system: HLA-B*08:02
- experiment.notes: IEDB peptide-MHC binding, purified MHC/direct/fluorescence; filed as Kd, often an IC50 or EC50 that approximates it; bounds were set here for any values at or beyond the usual limits of such assays
- test.context: source organism: Dengue virus 2 Thailand/16681/84
pKd: −log10 of the molar value.
observation.type: pKd

sequence QLKGMSYSM , pKd observed: ≤ 4.70

====

- assayed.system: HLA-B*08:01
- experiment.notes: IEDB peptide-MHC binding, purified MHC/direct/fluorescence; filed as Kd, often an IC50 or EC50 that approximates it; bounds were set here for any values at or beyond the usual limits of such assays
- test.context: source organism: Influenza A virus (A/Viet Nam/HN/2004(H5N1))
observation.type: Kd

sequence FRNQVKIRR , Kd observed: ≥ 20 µM

====

- assayed.system: HLA-B*48:01
- experiment.notes: IEDB peptide-MHC binding, purified MHC/direct/fluorescence; filed as Kd, often an IC50 or EC50 that approximates it; bounds were set here for any values at or beyond the usual limits of such assays
- test.context: source organism: Mycolicibacterium gilvum
pKd: −log10 of the molar value.
observation.type: pKd

sequence PHDPDFLVL , pKd observed: ≤ 4.70

====

- assayed.system: HLA-B*18:01
- experiment.notes: IEDB peptide-MHC binding, purified MHC/competitive/fluorescence; filed as Kd, often an IC50 or EC50 that approximates it; bounds were set here for any values at or beyond the usual limits of such assays
- test.context: source organism: Deerpox virus W-848-83
observation.type: Kd

sequence YVAGITLTH , Kd observed: ≥ 20 µM

====

- assayed.system: HLA-B*15:09
- experiment.notes: IEDB peptide-MHC binding, purified MHC/competitive/fluorescence; filed as Kd, often an IC50 or EC50 that approximates it; bounds were set here for any values at or beyond the usual limits of such assays
- test.context: source organism: Vaccinia virus
observation.type: Kd

sequence RVATENIAV , Kd observed: ≥ 20 µM

====

- assayed.system: HLA-B*57:01
- experiment.notes: IEDB peptide-MHC binding, purified MHC/competitive/fluorescence; filed as Kd, often an IC50 or EC50 that approximates it; bounds were set here for any values at or beyond the usual limits of such assays
- test.context: source organism: Coxiella burnetii RSA 331
observation.type: Kd

sequence HMNKLPLAK , Kd observed: ≥ 20 µM

====

- assayed.system: HLA-B*18:01
- experiment.notes: IEDB peptide-MHC binding, purified MHC/direct/fluorescence; filed as Kd, often an IC50 or EC50 that approximates it; bounds were set here for any values at or beyond the usual limits of such assays
- test.context: source organism: Marburg virus - Musoke, Kenya, 1980
observation.type: Kd

sequence KRLLLKLDF , Kd observed: ≥ 20 µM

====

- assayed.system: HLA-B*15:01
- experiment.notes: IEDB peptide-MHC binding, purified MHC/direct/fluorescence; filed as Kd, often an IC50 or EC50 that approximates it; bounds were set here for any values at or beyond the usual limits of such assays
- test.context: source organism: Vibrio vulnificus CMCP6
observation.type: Kd

sequence MPIAAAIGT , Kd observed: ≥ 20 µM

====

- assayed.system: HLA-B*15:02
- experiment.notes: IEDB peptide-MHC binding, purified MHC/direct/fluorescence; filed as Kd, often an IC50 or EC50 that approximates it; bounds were set here for any values at or beyond the usual limits of such assays
- test.context: source organism: Rickettsia prowazekii
observation.type: Kd

sequence YGGKKAVTY , Kd observed: ≥ 20 µM

====

- assayed.system: HLA-B*40:01
- experiment.notes: IEDB peptide-MHC binding, purified MHC/direct/fluorescence; filed as Kd, often an IC50 or EC50 that approximates it; bounds were set here for any values at or beyond the usual limits of such assays
- test.context: source organism: Salmonella enterica
observation.type: Kd

sequence QTDDGVRFT , Kd observed: ≥ 20 µM

====

- assayed.system: HLA-B*48:01
- experiment.notes: IEDB peptide-MHC binding, purified MHC/direct/fluorescence; filed as Kd, often an IC50 or EC50 that approximates it; bounds were set here for any values at or beyond the usual limits of such assays
- test.context: source organism: Cryptosporidium parvum Iowa II
observation.type: Kd (nM)
The response must be a number in nM with no trailing unit.

Form: item AQVTCLKFL ; test system HLA-B*48:01; Kd: 1670

====

- assayed.system: HLA-B*15:17
- experiment.notes: IEDB peptide-MHC binding, purified MHC/competitive/fluorescence; filed as Kd, often an IC50 or EC50 that approximates it; bounds were set here for any values at or beyond the usual limits of such assays
- test.context: source organism: Reston ebolavirus
observation.type: Kd

sequence ITDEINQIK , Kd observed: ≥ 20 µM

====

- assayed.system: HLA-A*69:01
- experiment.notes: IEDB peptide-MHC binding, purified MHC/direct/fluorescence; filed as Kd, often an IC50 or EC50 that approximates it; bounds were set here for any values at or beyond the usual limits of such assays
- test.context: source organism: Francisella tularensis subsp. tularensis
pKd: −log10 of the molar value.
observation.type: pKd

sequence RYSNFAWYF , pKd observed: ≤ 4.70

====

- assayed.system: HLA-B*18:01
- experiment.notes: IEDB peptide-MHC binding, purified MHC/competitive/fluorescence; filed as Kd, often an IC50 or EC50 that approximates it; bounds were set here for any values at or beyond the usual limits of such assays
- test.context: source organism: Mycobacterium tuberculosis variant bovis BCG str. Pasteur 1173P2
pKd: −log10 of the molar value.
observation.type: pKd

sequence RLAPEPVYT , pKd observed: ≤ 4.70

====

# log10 Kd per record follows
- assayed.system: HLA-A*02:02
- experiment.notes: IEDB peptide-MHC binding, purified MHC/competitive/radioactivity; filed as Kd, often an IC50 or EC50 that approximates it; bounds were set here for any values at or beyond the usual limits of such assays
- test.context: source organism: Vaccinia virus WR
A value of 2 here means Kd of 100 in µM, since values are log10.

input_sequence=QVLQQNNSFI observation_type="log10 Kd" recorded_result=-0.26

sequence NLVQYRILPM , log10 Kd observed: 0.60

sequence AAAKTPVIV , log10 Kd observed: 0.28

sequence ALEQYGIENT , log10 Kd observed: 0.50

sequence CIVAAVIIMA , log10 Kd observed: 0.05

sequence NVSGVPHSV , log10 Kd observed: -0.08

sequence VTTNNLLEQL , log10 Kd observed: 0.67

sequence DVKVLAARL , log10 Kd observed: 0.79

sequence QIGGEAIFLI , log10 Kd observed: -2.09

sequence GTGILFMEM , log10 Kd observed: 0.34

====

- assayed.system: HLA-A*33:01
- experiment.notes: IEDB peptide-MHC binding, purified MHC/competitive/radioactivity; filed as Kd, often an IC50 or EC50 that approximates it; bounds were set here for any values at or beyond the usual limits of such assays
- test.context: source organism: Lassa virus Josiah
observation.type: Kd

sequence TLTNTSIINH , Kd observed: ≥ 70 µM

====

# pKd per record follows
- assayed.system: HLA-B*18:01
- experiment.notes: IEDB peptide-MHC binding, purified MHC/direct/fluorescence; filed as Kd, often an IC50 or EC50 that approximates it; bounds were set here for any values at or beyond the usual limits of such assays
- test.context: source organism: Giardia lamblia ATCC 50803
pKd: −log10 of the molar value.

input_sequence=FMKVKFEAL recorded_result="≤ 4.70"
input_sequence=LLIQGLKTV recorded_result="≤ 4.70"

Form: item PPPPLQHPI ; test system HLA-B*18:01; pKd: ≤ 4.70

====

- assayed.system: HLA-A*68:01
- experiment.notes: IEDB peptide-MHC binding, purified MHC/competitive/radioactivity; filed as Kd, often an IC50 or EC50 that approximates it; bounds were set here for any values at or beyond the usual limits of such assays
- test.context: source organism: Vaccinia virus Copenhagen
# pKd per record follows
Convention used: pKd is expressed as -log10 of the molar concentration.

input_sequence=IVNNQESNK recorded_result=6.95
input_sequence=SSLDQTHIK recorded_result=5.83
input_sequence=IFAFIDFSK recorded_result=8.07
input_sequence=QLMYALEPRK recorded_result=7.08

sequence LTILDDNLYK , pKd observed: 7.71
